Each entry below lists one item and its recorded % of Lc16Hc7 value.
# System Name: T1, human IL-13 R130Q variant (R110Q of the mature chain) (human, UniProt P35225 35-146, Biotinylated on amines (NHS-LC-biotin, 4:1) in ELISA, panning and competition assays. The letters are unchanged.)
# T1 construct: R130Q counts from Met 1 of the signal peptide, R110Q on the mature chain; Bought from Peprotech; also called IL-13 R110Q; b-R130Q
# T1 sequence (P35225 35-146 limits assumed, stated change not applied): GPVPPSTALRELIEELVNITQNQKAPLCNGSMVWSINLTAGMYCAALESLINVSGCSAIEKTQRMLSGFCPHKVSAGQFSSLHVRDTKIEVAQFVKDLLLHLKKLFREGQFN
# Experiment: single-point (10 nM) phage Fab ELISA on biotinylated IL-13 R130Q
Give the value in % but do not write % after it.

INSERT INTO assay_data (binder, value_type, unit_label, obs_value) VALUES
  ('Phage # 61 Fab (IL-13-142 library) (Fab, V domains shown, Fab on phage pIX) VH: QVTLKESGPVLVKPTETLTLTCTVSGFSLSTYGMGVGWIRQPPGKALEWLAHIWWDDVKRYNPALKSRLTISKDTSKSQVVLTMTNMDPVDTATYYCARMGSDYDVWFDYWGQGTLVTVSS VL: DIQMTQSPSTLSASVGDRVTITCRASKSISKYLAWYQQKPGKAPKLLIYSGSTLQSGVPSRFSGSGSGTEFTLTISSLQPDDFATYYCQQHLFTPYTFGGGTKVEIK', '% of Lc16Hc7', '%', 245);

# % of Lc16Hc7 lookup, item Phage # 68 Fab (IL-13-142 library) (Fab, V domains shown, Fab on phage pIX; del = residue deleted) VH: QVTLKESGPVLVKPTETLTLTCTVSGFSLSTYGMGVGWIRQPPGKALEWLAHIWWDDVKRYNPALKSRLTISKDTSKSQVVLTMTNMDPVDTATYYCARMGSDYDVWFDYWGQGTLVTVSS VL: DIQMTQSPSTLSASVGDRVTITCRASKSISKYLAWYQQKPGKAPKLLIYSGSTLQSGVPSRFSGSGSGTEFTLTISSLQPDDFATYYCQQHDFPYTFGGGTKVEIK 398

Do the same for Phage # 51 Fab (IL-13-142 library) (Fab, V domains shown, Fab on phage pIX) VH: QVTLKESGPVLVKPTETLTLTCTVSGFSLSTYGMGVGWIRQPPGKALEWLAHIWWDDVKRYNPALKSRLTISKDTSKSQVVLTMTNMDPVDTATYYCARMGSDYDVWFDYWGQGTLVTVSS VL: DIQMTQSPSTLSASVGDRVTITCRASKSISKYLAWYQQKPGKAPKLLIYSGSTLQSGVPSRFSGSGSGTEFTLTISSLQPDDFATYYCQQHSAGPYTFGGGTKVEIK please 192
